Reported kon values follow for various binders
Target: T1, Human IL2Rγ extracellular domain expressed with a C-terminal mouse IgG2a Fc tag (human)
T1 construct: whole entry is the Fc-fused construct; also called hIL-2Rg-mFc
T1 chain: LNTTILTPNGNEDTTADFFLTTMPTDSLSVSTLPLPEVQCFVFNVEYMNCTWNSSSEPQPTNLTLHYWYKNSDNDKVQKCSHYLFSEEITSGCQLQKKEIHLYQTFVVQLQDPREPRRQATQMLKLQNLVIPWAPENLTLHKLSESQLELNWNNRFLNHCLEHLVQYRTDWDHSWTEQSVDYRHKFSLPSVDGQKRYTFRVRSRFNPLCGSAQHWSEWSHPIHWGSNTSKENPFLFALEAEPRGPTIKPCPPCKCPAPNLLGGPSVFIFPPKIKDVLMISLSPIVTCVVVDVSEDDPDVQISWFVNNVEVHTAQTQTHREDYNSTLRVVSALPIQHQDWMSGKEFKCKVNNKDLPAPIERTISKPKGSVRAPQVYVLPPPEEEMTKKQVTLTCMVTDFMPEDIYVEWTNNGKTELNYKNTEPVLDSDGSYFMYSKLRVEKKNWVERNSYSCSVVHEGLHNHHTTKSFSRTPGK
Experiment: SPR Biacore 4000, anti-hFc-captured mAb, 37 C
Number only, in M⁻¹ s⁻¹; omit the unit.

- BINDER: "H4H12858P (antibody, human IgG4 S228P, kappa, V domains shown, fully human anti-IL2Rgamma mAb, human IgG4 Fc; also called REGN9433) VH: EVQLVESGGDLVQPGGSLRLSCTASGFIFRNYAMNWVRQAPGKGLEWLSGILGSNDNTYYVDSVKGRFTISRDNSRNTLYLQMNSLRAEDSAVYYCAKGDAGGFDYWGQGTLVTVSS VL: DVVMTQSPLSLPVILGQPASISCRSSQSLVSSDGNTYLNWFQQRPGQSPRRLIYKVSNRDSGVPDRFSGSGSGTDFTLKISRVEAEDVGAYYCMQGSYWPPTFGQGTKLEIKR"
  EXPERIMENTAL ENDPOINT: "kon"
  NUMBER: 167000
- BINDER: "H4H12889P (antibody, human IgG4 S228P, kappa, V domains shown, fully human anti-IL2Rgamma mAb, human IgG4 Fc; also called REGN7257) VH: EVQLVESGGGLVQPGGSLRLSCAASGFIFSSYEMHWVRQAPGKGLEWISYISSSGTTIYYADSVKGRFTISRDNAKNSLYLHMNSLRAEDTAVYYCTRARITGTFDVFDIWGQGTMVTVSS VL: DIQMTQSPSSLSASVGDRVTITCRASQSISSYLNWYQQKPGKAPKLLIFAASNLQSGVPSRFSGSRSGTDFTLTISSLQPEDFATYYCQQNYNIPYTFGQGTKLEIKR"
  EXPERIMENTAL ENDPOINT: "kon"
  NUMBER: 238000
- BINDER: "H4H13541P (antibody, human IgG4 S228P, kappa, V domains shown, fully human anti-IL2Rgamma mAb, human IgG4 Fc) VH: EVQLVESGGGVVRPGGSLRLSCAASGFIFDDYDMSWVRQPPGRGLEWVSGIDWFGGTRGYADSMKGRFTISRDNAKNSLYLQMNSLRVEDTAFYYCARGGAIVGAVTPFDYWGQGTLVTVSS VL: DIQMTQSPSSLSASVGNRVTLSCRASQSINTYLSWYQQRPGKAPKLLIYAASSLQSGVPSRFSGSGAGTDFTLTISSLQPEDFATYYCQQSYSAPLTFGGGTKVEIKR"
  EXPERIMENTAL ENDPOINT: "kon"
  NUMBER: 56000

Next, consider the following binder.
What measured kon goes with H4H12863P (antibody, human IgG4 S228P, kappa, V domains shown, fully human anti-IL2Rgamma mAb, human IgG4 Fc) VH: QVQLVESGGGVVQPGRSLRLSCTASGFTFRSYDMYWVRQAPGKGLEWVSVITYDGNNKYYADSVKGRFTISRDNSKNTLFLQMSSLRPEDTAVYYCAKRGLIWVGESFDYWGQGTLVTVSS VL: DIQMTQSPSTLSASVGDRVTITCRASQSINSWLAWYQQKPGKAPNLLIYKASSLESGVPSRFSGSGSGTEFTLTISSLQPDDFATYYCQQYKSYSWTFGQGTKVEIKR ?
537000
